- TARGET_OR_SYSTEM: UniProt P06401
- Sequence (P06401 whole entry): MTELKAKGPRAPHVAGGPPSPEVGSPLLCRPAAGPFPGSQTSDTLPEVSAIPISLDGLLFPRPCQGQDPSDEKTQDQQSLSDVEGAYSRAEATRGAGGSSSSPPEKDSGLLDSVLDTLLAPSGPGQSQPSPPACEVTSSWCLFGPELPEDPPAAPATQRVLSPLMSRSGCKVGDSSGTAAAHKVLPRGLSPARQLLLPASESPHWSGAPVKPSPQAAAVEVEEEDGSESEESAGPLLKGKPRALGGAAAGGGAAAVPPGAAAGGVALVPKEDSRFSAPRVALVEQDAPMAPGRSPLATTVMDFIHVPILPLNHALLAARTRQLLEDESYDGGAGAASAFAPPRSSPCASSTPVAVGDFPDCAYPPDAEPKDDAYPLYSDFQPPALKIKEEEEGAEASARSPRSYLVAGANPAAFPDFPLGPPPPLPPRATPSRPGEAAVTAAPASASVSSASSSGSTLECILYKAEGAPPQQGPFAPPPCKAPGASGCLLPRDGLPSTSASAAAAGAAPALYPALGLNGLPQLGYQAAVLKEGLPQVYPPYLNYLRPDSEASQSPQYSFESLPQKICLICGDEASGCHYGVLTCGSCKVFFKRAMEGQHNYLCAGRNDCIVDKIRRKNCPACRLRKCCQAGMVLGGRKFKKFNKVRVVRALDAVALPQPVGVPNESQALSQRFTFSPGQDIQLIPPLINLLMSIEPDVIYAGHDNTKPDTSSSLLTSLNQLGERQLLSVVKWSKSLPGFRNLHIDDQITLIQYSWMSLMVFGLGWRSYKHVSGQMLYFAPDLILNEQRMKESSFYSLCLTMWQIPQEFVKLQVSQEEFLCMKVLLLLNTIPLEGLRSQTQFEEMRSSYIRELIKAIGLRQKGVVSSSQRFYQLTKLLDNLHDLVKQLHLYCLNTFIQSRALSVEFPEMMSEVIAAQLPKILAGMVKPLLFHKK
- METHOD_SUMMARY: Displacement of TAMRA labeled mifepristone at human progesterone receptor in insect cell
pIC50: −log10 of the molar value.
MEASURE: pIC50

>>> print(df.to_string())
                                   molecule  measure  reading
0  COc1ccc(F)cc1C(C)(C)CC(O)(Cc1ccc(C#N)cc1Cl)C(F)(F)F (stereo not given)    pIC50     6.85
1  COc1ccc(F)cc1C(C)(C)CC(O)(Cc1ccccc1F)C(F)(F)F (stereo not given)    pIC50   < 5.70
2  COc1ccc(F)cc1C(C)(C)CC(O)(CCCc1ccccc1)C(F)(F)F (stereo not given)    pIC50   < 6.13
3  COc1ccc(F)cc1C(C)(C)CC(O)(Cc1ccc(C#N)cc1F)C(F)(F)F (stereo not given)    pIC50     6.55
4  COc1ccc(F)cc1C(C)(C)CC(O)(Cc1cccc(C#N)c1)C(F)(F)F (stereo not given)    pIC50   < 5.70

Next up:
Value of pIC50 reported for the molecule COc1ccc(F)cc1C(C)(C)CC(O)(Cc1c(C)ccc2ccccc12)C(F)(F)F (stereo not given) is < 5.70

* * *

- TARGET_OR_SYSTEM: Glucocorticoid receptor (Homo sapiens, UniProt P04150)
- Sequence (P04150 whole entry): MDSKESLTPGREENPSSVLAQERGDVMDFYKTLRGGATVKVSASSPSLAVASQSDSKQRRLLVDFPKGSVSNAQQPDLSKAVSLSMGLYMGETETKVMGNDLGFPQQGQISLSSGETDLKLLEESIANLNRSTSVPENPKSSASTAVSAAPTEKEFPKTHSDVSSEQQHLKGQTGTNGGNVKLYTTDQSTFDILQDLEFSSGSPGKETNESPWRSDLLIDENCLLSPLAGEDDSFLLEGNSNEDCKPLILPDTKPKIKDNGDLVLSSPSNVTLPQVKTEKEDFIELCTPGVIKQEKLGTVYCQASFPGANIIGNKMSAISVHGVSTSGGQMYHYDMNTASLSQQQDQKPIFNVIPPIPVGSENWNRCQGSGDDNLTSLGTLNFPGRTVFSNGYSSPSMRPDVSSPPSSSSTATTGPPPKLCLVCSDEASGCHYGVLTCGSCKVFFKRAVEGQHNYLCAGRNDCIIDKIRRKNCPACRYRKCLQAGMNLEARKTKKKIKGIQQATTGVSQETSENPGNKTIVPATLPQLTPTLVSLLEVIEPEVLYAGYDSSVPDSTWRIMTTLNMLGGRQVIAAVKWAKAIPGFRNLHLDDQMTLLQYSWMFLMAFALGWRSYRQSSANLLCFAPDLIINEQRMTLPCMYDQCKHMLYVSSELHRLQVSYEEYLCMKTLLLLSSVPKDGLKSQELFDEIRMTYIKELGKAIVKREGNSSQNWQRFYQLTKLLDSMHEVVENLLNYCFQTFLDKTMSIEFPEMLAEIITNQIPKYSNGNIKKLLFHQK
MEASURE: IC50 (nM)
Reply with just the number (in nM).

Consider the worked cases shown below.
                                   compound  reading
0  COc1ccc(F)cc1C(C)(C)CC(O)(Cc1ccccc1)C(F)(F)F (centres undefined)      610
1  COc1ccc(F)cc1C(C)(C)CC(O)(Cc1ccc(C#N)cc1Cl)C(F)(F)F (centres undefined)       17
2  COc1ccc(F)cc1C(C)(C)CC(O)(Cc1cc(C)cc(C)c1C#N)C(F)(F)F (centres undefined)        8

The compound COc1ccc(F)cc1C(C)(C)CC(O)(Cc1ccc(C#N)cc1F)C(F)(F)F (centres undefined) showed IC50 equal to 22
